Provenance of the data: paper PMC11477289

Molecular target: human serum albumin (HSA) (Homo sapiens, UniProt P02768)
Sequence (P02768 25-609): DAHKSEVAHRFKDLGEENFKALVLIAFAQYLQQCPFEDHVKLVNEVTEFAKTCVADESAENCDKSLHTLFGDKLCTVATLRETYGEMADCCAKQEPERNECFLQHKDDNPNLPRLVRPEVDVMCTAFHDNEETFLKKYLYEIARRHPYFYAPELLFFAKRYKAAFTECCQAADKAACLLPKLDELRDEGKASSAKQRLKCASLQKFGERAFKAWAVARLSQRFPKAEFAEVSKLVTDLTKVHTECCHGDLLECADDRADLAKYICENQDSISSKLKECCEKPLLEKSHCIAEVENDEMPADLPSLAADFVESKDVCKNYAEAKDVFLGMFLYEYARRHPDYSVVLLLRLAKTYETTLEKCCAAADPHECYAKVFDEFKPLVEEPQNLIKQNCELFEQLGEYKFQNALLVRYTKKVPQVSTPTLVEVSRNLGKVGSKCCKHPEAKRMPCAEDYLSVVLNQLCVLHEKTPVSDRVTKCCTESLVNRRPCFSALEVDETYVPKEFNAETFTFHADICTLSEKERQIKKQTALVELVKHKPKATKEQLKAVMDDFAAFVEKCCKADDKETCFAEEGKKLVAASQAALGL
Test: Binding to HSA, Chiralpak HSA column
Conditions: Chiralpak HSA column
For each record, write down the corresponding logKHSA.

Q) What does the data say about its logKHSA? Entry: "O=S(=O)(NC1=Nc2cccc(Cl)c2CN1)c1ccc(Cl)c2ccccc12"
A) 1.8

Q) What does the data say about its logKHSA? Entry: "Nc1nc2ccccc2n1S(=O)(=O)c1cccc2cccnc12"
A) 1.1

Q) What does the data say about its logKHSA? Entry: "O=S(=O)(NC1=Nc2ccccc2CN1)c1ccc(Cl)c2ccccc12"
A) 1.5

Q) What does the data say about its logKHSA? Entry: "O=S(=O)(NC1=Nc2ccccc2CN1)c1ccc(OC(F)(F)F)cc1"
A) 1.1

Q) What does the data say about its logKHSA? Entry: CC1NC(NS(=O)(=O)c2cccc3ccccc23)=Nc2cccc(Cl)c21 (stereo not drawn)
A) 1.5

Q) What does the data say about its logKHSA? Entry: CN1CCN2c3ccccc3Cc3ccccc3C2C1 (stereo not drawn) [Mianserin, reference compound]
A) 0.95

Q) What does the data say about its logKHSA? Entry: CC1NC(NS(=O)(=O)c2ccc(Cl)c3ccccc23)=Nc2c(Cl)cc(Cl)cc21 (stereo not drawn)
A) 2.0

Q) What does the data say about its logKHSA? Entry: CC1NC(NS(=O)(=O)c2cccc3ccccc23)=Nc2c(Cl)cccc21 (stereo not drawn)
A) 1.4

Q) What does the data say about its logKHSA? Entry: "O=S(=O)(NC1=Nc2ccccc2CN1)c1c(Cl)ccc2ccccc12"
A) 1.4

---

Biological target: human 5-HT6 (Homo sapiens)
Construct: expressed in transfected cells
Sequence (P50406 whole entry): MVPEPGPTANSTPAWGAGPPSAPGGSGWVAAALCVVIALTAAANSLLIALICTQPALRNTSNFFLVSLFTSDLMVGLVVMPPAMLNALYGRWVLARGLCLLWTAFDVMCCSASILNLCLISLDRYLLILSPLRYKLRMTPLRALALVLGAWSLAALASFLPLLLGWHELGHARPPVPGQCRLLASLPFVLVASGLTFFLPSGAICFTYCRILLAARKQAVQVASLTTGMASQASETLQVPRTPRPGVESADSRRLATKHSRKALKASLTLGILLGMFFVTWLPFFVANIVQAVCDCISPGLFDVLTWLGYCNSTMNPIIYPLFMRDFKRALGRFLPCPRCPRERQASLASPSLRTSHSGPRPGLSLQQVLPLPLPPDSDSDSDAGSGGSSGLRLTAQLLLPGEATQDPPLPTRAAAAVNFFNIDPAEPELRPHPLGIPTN
Assay: [3H]-LSD radioligand binding assay, 5-HT6R
Settings: HEK293 expressing human 5-HT6R, read-out: 5-HT6 Ki
measured-endpoint: log10 of Ki (log10 of the value in µM)
Lab note - Ki converted to log10 from values in µM.

Q) Reported log10 of Ki for human 5-HT6 (Homo sapiens), given CC1NC(NS(=O)(=O)c2cccc3ccccc23)=Nc2ccc(Cl)cc21 (centres unmarked) [PR 69] ?
A) -0.43

Q) Reported log10 of Ki for human 5-HT6 (Homo sapiens), given CC1NC(NS(=O)(=O)c2cccc3ccccc23)=Nc2cccc(F)c21 (centres unmarked) [PR 73] ?
A) -1.37

Q) Reported log10 of Ki for human 5-HT6 (Homo sapiens), given CC1NC(NS(=O)(=O)c2ccc3ccccc3c2)=Nc2ccc(Cl)cc21 (centres unmarked) [PR 35] ?
A) 0.38

Q) Reported log10 of Ki for human 5-HT6 (Homo sapiens), given O=S(=O)(NC1=Nc2cccc(Cl)c2CN1)c1cccc2ccccc12 [PR 46] ?
A) -0.80

Q) Reported log10 of Ki for human 5-HT6 (Homo sapiens), given Nc1nc2ccccc2n1S(=O)(=O)c1cccc2ccccc12 [PR 3] ?
A) -0.83

Q) Reported log10 of Ki for human 5-HT6 (Homo sapiens), given Nc1nc2ccccc2n1S(=O)(=O)c1ccc2ccccc2c1 [PR 4] ?
A) -0.48

Q) Reported log10 of Ki for human 5-HT6 (Homo sapiens), given O=S(=O)(NC1=Nc2c(Cl)cccc2CN1)c1cccc2ccccc12 [PR 49] ?
A) -1.11

Q) Reported log10 of Ki for human 5-HT6 (Homo sapiens), given O=S(=O)(NC1=Nc2ccccc2CN1)c1ccc2c(Cl)cccc2c1 [PR 30] ?
A) -0.01

Q) Reported log10 of Ki for human 5-HT6 (Homo sapiens), given O=S(=O)(NC1=Nc2ccccc2CCN1)c1cccc2ccccc12 [PR 78] ?
A) -0.56

Q) Reported log10 of Ki for human 5-HT6 (Homo sapiens), given O=S(=O)(NC1=Nc2cccc(F)c2CN1)c1cccc2ccccc12 [PR 54] ?
A) -0.42

Q) Reported log10 of Ki for human 5-HT6 (Homo sapiens), given O=S(=O)(NC1=Nc2cccc(Cl)c2CN1)c1ccc2ccccc2c1 [PR 31] ?
A) 0.34

Q) Reported log10 of Ki for human 5-HT6 (Homo sapiens), given CN(C)c1cccc2c1CNC(NS(=O)(=O)c1cccc3ccccc13)=N2 [PR 63] ?
A) -0.82

Q) Reported log10 of Ki for human 5-HT6 (Homo sapiens), given O=S(=O)(NC1=Nc2ccccc2CN1)c1ccc(F)cc1 [PR 14] ?
A) 0.39

Q) Reported log10 of Ki for human 5-HT6 (Homo sapiens), given CC1NC(NS(=O)(=O)c2ccc(Cl)c3ccccc23)=Nc2c(Cl)cc(Cl)cc21 (centres unmarked) [PR 74] ?
A) 0.02

Q) Reported log10 of Ki for human 5-HT6 (Homo sapiens), given O=S(=O)(NC1=NCc2ccccc2N1)c1ccccc1 [PR 13] ?
A) 0.42

Q) Reported log10 of Ki for human 5-HT6 (Homo sapiens), given CC1NC(NS(=O)(=O)c2cccc3ccccc23)=Nc2ccccc21 (centres unmarked) [PR 67] ?
A) -0.63

Q) Reported log10 of Ki for human 5-HT6 (Homo sapiens), given O=S(=O)(NC1=Nc2cc(F)ccc2CN1)c1cccc2ccccc12 [PR 56] ?
A) -0.06

Q) Reported log10 of Ki for human 5-HT6 (Homo sapiens), given O=S(=O)(NC1=NCc2ccccc2N1)c1cccc2ccccc12 [PR 40] ?
A) -0.19

Q) Reported log10 of Ki for human 5-HT6 (Homo sapiens), given O=S(=O)(NC1=Nc2ccc(Cl)c(Cl)c2CN1)c1cccc2ccccc12 [PR 50] ?
A) -0.35

Q) Reported log10 of Ki for human 5-HT6 (Homo sapiens), given O=S(=O)(NC1=Nc2ccccc2CN1)c1cccc(Cl)c1Cl [PR 20] ?
A) -0.53

Q) Reported log10 of Ki for human 5-HT6 (Homo sapiens), given O=S(=O)(NC1=Nc2ccccc2CN1)c1cccc2cccc(Cl)c12 [PR 45] ?
A) -0.13

Q) Reported log10 of Ki for human 5-HT6 (Homo sapiens), given COc1ccc2c(c1)CNC(NS(=O)(=O)c1cccc3ccccc13)=N2 [PR 59] ?
A) 0.29

Q) Reported log10 of Ki for human 5-HT6 (Homo sapiens), given O=S(=O)(NC1=Nc2ccccc2CN1)c1cccc(Cl)c1 [PR 19] ?
A) -0.28

Q) Reported log10 of Ki for human 5-HT6 (Homo sapiens), given O=S(=O)(NC1=Nc2cccc(Cl)c2CN1)c1ccc(Cl)c2ccccc12 [PR 53] ?
A) -0.72

Q) Reported log10 of Ki for human 5-HT6 (Homo sapiens), given O=S(=O)(NC1=Nc2ccccc2CN1)c1c(Cl)cccc1Cl [PR 22] ?
A) 0.16

Q) Reported log10 of Ki for human 5-HT6 (Homo sapiens), given O=S(=O)(NC1=Nc2ccccc2CN1)c1ccc(Cl)c(Cl)c1 [PR 21] ?
A) 0.01

Q) Reported log10 of Ki for human 5-HT6 (Homo sapiens), given Cc1c(S(=O)(=O)n2c(N)nc3ccccc32)sc2ccc(F)cc12 [PR 7] ?
A) 0.47

Q) Reported log10 of Ki for human 5-HT6 (Homo sapiens), given CC1NC(NS(=O)(=O)c2cccc3ccccc23)=Nc2cccc(Cl)c21 (centres unmarked) [PR 68] ?
A) -1.43

Q) Reported log10 of Ki for human 5-HT6 (Homo sapiens), given CC1NC(NS(=O)(=O)c2ccc3ccccc3c2)=Nc2ccc(Br)cc21 (centres unmarked) [PR 36] ?
A) 1.47

Q) Reported log10 of Ki for human 5-HT6 (Homo sapiens), given O=S(=O)(NC1=Nc2ccc(Cl)cc2CN1)c1ccccc1 [PR 27] ?
A) 0.23

Q) Reported log10 of Ki for human 5-HT6 (Homo sapiens), given O=S(=O)(NC1=Nc2ccc(Cl)cc2CN1)c1cccc2ccccc12 [PR 47] ?
A) -0.47

Q) Reported log10 of Ki for human 5-HT6 (Homo sapiens), given O=S(=O)(NC1=Nc2ccccc2CN1)c1ccc(OC(F)(F)F)cc1 [PR 17] ?
A) 0.99

Q) Reported log10 of Ki for human 5-HT6 (Homo sapiens), given O=S(=O)(Nc1nc2ccccc2[nH]1)c1cccc2ccccc12 [PR 11] ?
A) -0.49

Q) Reported log10 of Ki for human 5-HT6 (Homo sapiens), given Nc1nc2ccccc2n1S(=O)(=O)c1ccccc1 [PR 1] ?
A) 0.33

Q) Reported log10 of Ki for human 5-HT6 (Homo sapiens), given O=S(=O)(NC1=Nc2ccccc2CN1)c1ccc(F)c(F)c1 [PR 15] ?
A) 0.72

Q) Reported log10 of Ki for human 5-HT6 (Homo sapiens), given O=S(=O)(NC1=NCc2ccccc2N1)c1ccc2ccccc2c1 [PR 29] ?
A) 0.56

Q) Reported log10 of Ki for human 5-HT6 (Homo sapiens), given COc1cccc2c1CNC(NS(=O)(=O)c1cccc3ccccc13)=N2 [PR 58] ?
A) -0.76

Q) Reported log10 of Ki for human 5-HT6 (Homo sapiens), given CC1NC(NS(=O)(=O)c2ccc3ccccc3c2)=Nc2cc(Cl)ccc21 (centres unmarked) [PR 37] ?
A) 0.35

Q) Reported log10 of Ki for human 5-HT6 (Homo sapiens), given O=S(=O)(NC1=Nc2ccc(F)cc2CN1)c1cccc2ccccc12 [PR 55] ?
A) 0.25

Q) Reported log10 of Ki for human 5-HT6 (Homo sapiens), given Nc1nc2cc(Cl)ccc2n1S(=O)(=O)c1cccc2ccccc12 [PR 6] ?
A) -0.15

Q) Reported log10 of Ki for human 5-HT6 (Homo sapiens), given O=S(=O)(NC1=Nc2ccccc2CN1)c1ccc(C(F)(F)F)cc1 [PR 16] ?
A) 0.71
